molecular target: Sushi domains (SD1/2) protein of the GABAB1a (GB1a) subunit, recombinant; assay: FP competition with AJAP-1probe
Sequence (Q9Z0U4 29-158): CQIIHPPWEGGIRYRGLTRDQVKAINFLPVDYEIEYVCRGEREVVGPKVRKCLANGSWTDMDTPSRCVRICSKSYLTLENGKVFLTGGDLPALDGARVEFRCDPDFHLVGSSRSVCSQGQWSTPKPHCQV
Listed binders paired with reported pKi
Scale: pKi equals -log10([C]), with [C] in mol/L.

Below, each entry is followed by its recorded pKi result.
binder="Ac-DSADAEEDDSDVWWG-NH2 [peptide 11 (…)]" recorded_endpoint=pKi result_number=5.30
binder=Ac-TTETEFIAWGPTGDE-NH2 recorded_endpoint=pKi result_number=7.14
binder=Ac-WAIVWGPTVSREDGG-NH2 recorded_endpoint=pKi result_number=5.87

Alright, here's another binder for you.
Look at this binder and give its reported pKi. Ac-SADAEEDDSDVWWGG-NH2 [peptide 12 (…)]
5.89
